For each entry below, report its MFI at 33.3 nM value.
Target: human CTLA-4 (human) (UniProt P16410)
Sequence (P16410 36-223): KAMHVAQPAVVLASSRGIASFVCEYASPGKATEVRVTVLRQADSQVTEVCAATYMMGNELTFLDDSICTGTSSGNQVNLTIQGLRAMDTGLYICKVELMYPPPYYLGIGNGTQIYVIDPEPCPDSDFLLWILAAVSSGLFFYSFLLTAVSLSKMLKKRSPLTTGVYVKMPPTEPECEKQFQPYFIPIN
Test Details: flow cytometry, CHO cells expressing huCTLA-4
One number for each entry, in MFI.

Worked set:
>>> reading("variant CD80 IgV-Fc E35D/N48K/V68M (Fc fusion) VIHVTKEVKEVATLSCGHNVSVEELAQTRIYWQKDKKMVLTMMSGDMKIWPEYKNRTIFDITNNLSIMILALRPSDEGTYECVVLKYEKDAFKREHLAEVTLSVKAD")
33600
>>> reading("variant CD80 IgV-Fc E35D/M47V/N48K/V68M (Fc fusion) VIHVTKEVKEVATLSCGHNVSVEELAQTRIYWQKDKKMVLTMMSGDVKIWPEYKNRTIFDITNNLSIMILALRPSDEGTYECVVLKYEKDAFKREHLAEVTLSVKAD")
32900
>>> reading("variant CD80 IgV-Fc E35D/D46V/L85Q (Fc fusion) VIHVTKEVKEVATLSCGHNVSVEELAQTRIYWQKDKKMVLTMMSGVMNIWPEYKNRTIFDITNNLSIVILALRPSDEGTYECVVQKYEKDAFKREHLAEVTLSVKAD")
48000
>>> reading("variant CD80 IgV-Fc E35D/D46V/M47L/V68M/L85Q (Fc fusion) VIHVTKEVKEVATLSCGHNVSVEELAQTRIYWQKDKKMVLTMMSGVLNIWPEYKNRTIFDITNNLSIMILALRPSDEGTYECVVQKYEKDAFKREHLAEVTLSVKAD")
26200
>>> reading("variant CD80 IgV-Fc M47V/N48K/V68M (Fc fusion) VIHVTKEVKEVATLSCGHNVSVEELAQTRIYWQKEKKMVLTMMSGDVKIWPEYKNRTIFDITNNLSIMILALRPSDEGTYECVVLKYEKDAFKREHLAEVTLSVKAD")
34600
>>> reading("variant CD80 IgV-Fc E35D/D46V/V68M (Fc fusion) VIHVTKEVKEVATLSCGHNVSVEELAQTRIYWQKDKKMVLTMMSGVMNIWPEYKNRTIFDITNNLSIMILALRPSDEGTYECVVLKYEKDAFKREHLAEVTLSVKAD")
31200
>>> reading("variant CD80 IgV-Fc E35D/M47L/V68M (Fc fusion) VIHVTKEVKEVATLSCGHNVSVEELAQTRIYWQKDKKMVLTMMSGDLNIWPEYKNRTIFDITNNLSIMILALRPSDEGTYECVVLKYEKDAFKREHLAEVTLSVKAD")
28600

What does the record list as MFI at 33.3 nM for variant CD80 IgV-Fc E35D/D46V/M47V/V68M/L85Q (Fc fusion) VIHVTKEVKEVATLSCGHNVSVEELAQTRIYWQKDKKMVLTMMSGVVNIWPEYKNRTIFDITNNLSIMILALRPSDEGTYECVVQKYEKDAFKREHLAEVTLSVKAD ?
36500
